biological target: recombinant human vWF-A1 domain (Homo sapiens, UniProt P07359); construct: whole blood drawn from voluntary donors; made in house; host or cells: E. coli (vWF-A1); washed platelets from human donor blood (GPIb, endogenous); assay: Static human platelet adhesion to recombinant human vWF-A1 domain; assay type: cell-based; settings: washed calcein AM labeled human platelets, static conditions, 1.5 h adhesion; read-out: Activity (IC50 for inhibition of the binding of platelets to vWF A1 domain)
Sequence (P07359 17-652): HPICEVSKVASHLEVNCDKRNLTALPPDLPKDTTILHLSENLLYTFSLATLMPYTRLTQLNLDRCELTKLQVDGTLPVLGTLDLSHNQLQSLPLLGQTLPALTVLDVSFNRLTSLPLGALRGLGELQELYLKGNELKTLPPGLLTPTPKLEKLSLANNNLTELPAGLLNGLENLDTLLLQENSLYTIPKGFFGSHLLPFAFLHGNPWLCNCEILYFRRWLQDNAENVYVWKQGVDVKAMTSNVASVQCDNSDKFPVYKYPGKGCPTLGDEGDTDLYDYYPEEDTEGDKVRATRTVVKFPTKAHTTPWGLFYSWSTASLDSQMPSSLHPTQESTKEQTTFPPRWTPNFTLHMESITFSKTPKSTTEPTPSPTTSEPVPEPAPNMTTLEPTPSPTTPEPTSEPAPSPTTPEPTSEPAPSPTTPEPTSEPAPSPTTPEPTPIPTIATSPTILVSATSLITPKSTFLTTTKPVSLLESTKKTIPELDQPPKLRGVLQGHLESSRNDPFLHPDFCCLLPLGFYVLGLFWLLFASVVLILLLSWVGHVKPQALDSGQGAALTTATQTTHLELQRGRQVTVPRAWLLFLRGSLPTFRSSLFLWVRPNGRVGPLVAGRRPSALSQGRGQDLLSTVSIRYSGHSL
Sequence (P13224 26-206 partner): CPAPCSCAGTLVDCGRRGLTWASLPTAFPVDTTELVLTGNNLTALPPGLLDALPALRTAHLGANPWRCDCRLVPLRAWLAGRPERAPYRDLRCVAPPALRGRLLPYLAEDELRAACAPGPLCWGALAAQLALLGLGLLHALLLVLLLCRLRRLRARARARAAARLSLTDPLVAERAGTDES
Sequence (P14770 17-177 partner): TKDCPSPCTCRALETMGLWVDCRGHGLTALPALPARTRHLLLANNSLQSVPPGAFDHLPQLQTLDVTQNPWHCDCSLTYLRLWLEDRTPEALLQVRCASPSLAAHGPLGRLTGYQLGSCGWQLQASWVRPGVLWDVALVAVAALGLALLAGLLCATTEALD
Starred links: 1 amine or outer side, 2 acyl side, 3 side chain; linkers in the order of their positions; H or OH if unused. Positions of bridges follow the written chain, without caps; N, C: chain ends. Non-standard residues stand in square brackets, D forms with d. Residues, ends and D or L forms follow the SMILES beside them. NH(CH2)9CO = O=C(CCCCCCCCCN[*:1])[*:2]; Ac6c = NC1(C(=O)O)CCCCC1; Dap = NC[C@H](N)C(=O)O; Ahp = NCCCCCCC(=O)O; Ava = NCCCCC(=O)O; GABA = NCCCC(=O)O
Attribute Measured: IC50

Below, each entry is followed by its recorded IC50 result.
[
  {
    "Compound": "CSCC[C@@H]1NC(=O)[C@H](CCCNC(=N)N)NC(=O)[C@H](CCC(=O)O)NC(=O)[C@H]([C@@H](C)O)NC(=O)[C@@H](NC(C)=O)CCCCNC(=O)[C@H](CC(C)C)NC(=O)[C@H](CC(N)=O)NC(=O)[C@H](Cc2c[nH]cn2)NC(=O)[C@H](CC(C)C)NC(=O)[C@H](C)NC1=O [Example 5] (Ac-KTERMALHNL; lactam 1-C)",
    "Measured On": "recombinant human vWF-A1 domain (Homo sapiens, UniProt P07359)",
    "Attribute Measured": "IC50",
    "Experimental Value": "1000 to 10000 nM"
  },
  {
    "Compound": "COC[C@@H]1NC(=O)[C@H](CCCNC(=N)N)NC(=O)[C@H](CCC(=O)O)NC(=O)[C@H]([C@@H](C)O)NC(=O)CCCCCCNC(=O)[C@H](CC(C)C)NC(=O)[C@H](CC(N)=O)NC(=O)[C@H](Cc2c[nH]cn2)NC(=O)[C@H](CC(C)C)NC(=O)[C@H](C)NC1=O [Example 45] (cyclo(ALHNL[Ahp]TERS(Me)))",
    "Measured On": "recombinant human vWF-A1 domain (Homo sapiens, UniProt P07359)",
    "Attribute Measured": "IC50",
    "Experimental Value": "< 1000 nM"
  },
  {
    "Compound": "CSCC[C@@H]1NC(=O)[C@H](CCCNC(=N)N)NC(=O)[C@H](CCC(=O)O)NC(=O)[C@H]([C@@H](C)O)NC(=O)CCCCNC(=O)CNC(=O)[C@H](CC(C)C)NC(=O)[C@H](CC(N)=O)NC(=O)[C@H](Cc2c[nH]cn2)NC(=O)[C@H](CC(C)C)NC(=O)[C@H](C)NC1=O [Example 46] (cyclo(ALHNLG[Ava]TERM))",
    "Measured On": "recombinant human vWF-A1 domain (Homo sapiens, UniProt P07359)",
    "Attribute Measured": "IC50",
    "Experimental Value": "1000 to 10000 nM"
  },
  {
    "Compound": "CSCC[C@@H]1NC(=O)[C@H](CCCNC(=N)N)NC(=O)[C@H](CCC(=O)O)NC(=O)[C@H]([C@@H](C)O)NC(=O)CCCCCCNC(=O)[C@H](CC(C)C)NC(=O)[C@H](CC(N)=O)NC(=O)[C@H](Cc2c[nH]cn2)NC(=O)C2(CCCCC2)NC(=O)[C@H](C)NC1=O [Example 37] (cyclo(A[Ac6c]HNL[Ahp]TERM))",
    "Measured On": "recombinant human vWF-A1 domain (Homo sapiens, UniProt P07359)",
    "Attribute Measured": "IC50",
    "Experimental Value": "1000 to 10000 nM"
  },
  {
    "Compound": "CSCC[C@@H]1NC(=O)[C@H](CCCNC(=N)N)NC(=O)[C@H](CCC(=O)O)NC(=O)[C@H]([C@@H](C)O)NC(=O)CCCCCCCCCNC(=O)[C@H](CC(C)C)NC(=O)[C@H](CC(N)=O)NC(=O)[C@H](Cc2c[nH]cn2)NC(=O)[C@H](CC(C)C)NC(=O)[C@H](C)NC1=O [Example 47] (cyclo(ALHNL[NH(CH2)9CO]TERM))",
    "Measured On": "recombinant human vWF-A1 domain (Homo sapiens, UniProt P07359)",
    "Attribute Measured": "IC50",
    "Experimental Value": "1000 to 10000 nM"
  }
]

Record CSCC[C@@H]1NC(=O)[C@H](CCCNC(=N)N)NC(=O)[C@H](CCC(=O)O)NC(=O)[C@H]([C@@H](C)O)NC(=O)CCCNC(=O)[C@H](CN)NC(=O)[C@H](CC(C)C)NC(=O)[C@H](CC(N)=O)NC(=O)[C@H](Cc2c[nH]cn2)NC(=O)[C@H](CC(C)C)NC(=O)[C@H](C)NC1=O [Example 49] (cyclo(ALHNL[Dap][GABA]TERM)) . Reported IC50: 1000 to 10000 nM

So, CSCC[C@@H]1NC(=O)[C@H](CCCNC(=N)N)NC(=O)[C@H](CCC(=O)O)NC(=O)[C@H](CC(=O)O)NC(=O)CCCCCCNC(=O)[C@H](CC(C)C)NC(=O)[C@H](CC(N)=O)NC(=O)[C@H](Cc2c[nH]cn2)NC(=O)[C@H](CC(C)C)NC(=O)[C@H](C)NC1=O [Example 10] (cyclo(ALHNL[Ahp]DERM)) ? Its IC50 was 1000 to 10000 nM

# IC50 of CC(C)C[C@@H]1NC(=O)[C@H](C)NC(=O)[C@H](CCC(N)=O)NC(=O)[C@H](CCCNC(=N)N)NC(=O)[C@H](CCC(=O)O)NC(=O)[C@H]([C@@H](C)O)NC(=O)CCCCCCNC(=O)[C@H](CC(C)C)NC(=O)[C@H](CC(N)=O)NC(=O)[C@H](Cc2c[nH]cn2)NC1=O [Example 41] (cyclo(ALHNL[Ahp]TERQ)) = < 1000 nM

---

target: recombinant human vWF-A1 domain (Homo sapiens, UniProt P07359); construct: whole blood drawn from voluntary donors; made in house; host or cells: E. coli (vWF-A1); washed platelets from human donor blood (GPIb, endogenous); assay: Static human platelet adhesion to recombinant human vWF-A1 domain; assay type: cell-based; conditions: washed calcein AM labeled human platelets, static conditions, 1.5 h adhesion; read-out: Activity (IC50 for inhibition of the binding of platelets to vWF A1 domain)
Non-standard residues stand in square brackets, D forms with d. Residues, ends and D or L forms follow the SMILES beside them. Ac3c = NC1(C(=O)O)CC1; Ahp = NCCCCCCC(=O)O; GABA = NCCCC(=O)O
Attribute Measured: IC50

IC50 in this record for CSCC[C@@H]1NC(=O)[C@H](CCCNC(=N)N)NC(=O)[C@H](CCC(=O)O)NC(=O)[C@H]([C@@H](C)O)NC(=O)CCCCCCNC(=O)[C@H](CC(C)C)NC(=O)[C@H](CC(N)=O)NC(=O)[C@H](Cc2c[nH]cn2)NC(=O)[C@H](CC(C)C)NC(=O)[C@H](CCC(N)=O)NC1=O [Example 55] (cyclo([Ahp]TERMQLHNL)) : 1 to 10 µM

So, CSCC[C@@H]1NC(=O)[C@H](CCCNC(=N)N)NC(=O)[C@H](CCC(=O)O)NC(=O)[C@H]([C@@H](C)O)NC(=O)C2(CC2)NC(=O)CCCNC(=O)[C@H](CC(C)C)NC(=O)[C@H](CC(N)=O)NC(=O)[C@H](Cc2c[nH]cn2)NC(=O)[C@H](CC(C)C)NC(=O)[C@H](C)NC1=O [Example 54] (cyclo(ALHNL[GABA][Ac3c]TERM)) ? Its IC50 was 1 to 10 µM

---

target: recombinant human vWF-A1 domain (Homo sapiens); construct: whole blood drawn from voluntary donors; made in house; host or cells: E. coli (vWF-A1); washed platelets from human donor blood (GPIb, endogenous); assay: Static human platelet adhesion to recombinant human vWF-A1 domain; format: cell-based; conditions: washed calcein AM labeled human platelets, static conditions, 1.5 h adhesion; read-out: Activity (IC50 for inhibition of the binding of platelets to vWF A1 domain)
pIC50: −log10 of the molar value. Non-standard residues stand in square brackets, D forms with d. Residues, ends and D or L forms follow the SMILES beside them. tBuAla = CC(C)(C)C[C@H](N)C(=O)O; Dap = NC[C@H](N)C(=O)O; Ahp = NCCCCCCC(=O)O
Listing of recorded pIC50 by entry.

[
  {
    "Compound": "CSCC[C@@H]1NC(=O)[C@H](CCCNC(=N)N)NC(=O)[C@H](CCC(=O)O)NC(=O)[C@H]([C@@H](C)O)NC(=O)CCCCCCNC(=O)[C@H](CC(C)C)NC(=O)[C@H](CC(N)=O)NC(=O)[C@H](Cc2c[nH]cn2)NC(=O)[C@H](CC(C)C)NC(=O)[C@H](CCCNC(=N)N)NC1=O [Example 30] (cyclo([Ahp]TERMRLHNL))",
    "Attribute Measured": "pIC50",
    "Experimental Value": "5.00 to 6.00"
  }
]

Tested on recombinant human vWF-A1 domain (Homo sapiens): CC[C@H](C)[C@@H]1NC(=O)[C@H](C)NC(=O)[C@H](CCSC)NC(=O)[C@H](CCCNC(=N)N)NC(=O)[C@H](CCC(=O)O)NC(=O)[C@H]([C@@H](C)O)NC(=O)CCCCCCNC(=O)[C@H](CC(C)C)NC(=O)[C@H](CC(N)=O)NC(=O)[C@H](Cc2c[nH]cn2)NC1=O [Example 14] (cyclo(AIHNL[Ahp]TERM)) . Observed pIC50: 5.00 to 6.00

Form: item CSCC[C@@H]1NC(=O)[C@H](CN)NC(=O)[C@H](CCC(=O)O)NC(=O)[C@H]([C@@H](C)O)NC(=O)CCCCCCNC(=O)[C@H](CC(C)C)NC(=O)[C@H](CC(N)=O)NC(=O)[C@H](Cc2c[nH]cn2)NC(=O)[C@H](CC(C)C)NC(=O)[C@H](C)NC1=O [Example 29] (cyclo(ALHNL[Ahp]TE[Dap]M)) ; test system recombinant human vWF-A1 domain (Homo sapiens); pIC50: 5.00 to 6.00

Note to self: pIC50 of CSCC[C@@H]1NC(=O)[C@H](CCCNC(=N)N)NC(=O)[C@H](CCC(=O)O)NC(=O)[C@H]([C@@H](C)O)NC(=O)CCCCCCNC(=O)[C@H](CC(C)C)NC(=O)[C@H](CC(N)=O)NC(=O)[C@H](Cc2c[nH]cn2)NC(=O)[C@H](CC(C)(C)C)NC(=O)[C@H](C)NC1=O [Example 36] (cyclo(A[tBuAla]HNL[Ahp]TERM)) with recombinant human vWF-A1 domain (Homo sapiens) was > 6.00

Fill in: recombinant human vWF-A1 domain (Homo sapiens) pIC50 for CC[C@H](C)[C@@H]1NC(=O)[C@H](CCCNC(=N)N)NC(=O)[C@H](CCC(=O)O)NC(=O)[C@H]([C@@H](C)O)NC(=O)CCCCCCNC(=O)[C@H](CC(C)C)NC(=O)[C@H](CC(N)=O)NC(=O)[C@H](Cc2c[nH]cn2)NC(=O)[C@H](CC(C)C)NC(=O)[C@H](C)NC1=O [Example 18] (cyclo(ALHNL[Ahp]TERI)) = 5.00 to 6.00
